# tested.on: PEPC (phosphoenolpyruvate carboxylase)
# Construct: native enzyme in desalted (Sephadex G-25) crude leaf extract, not purified; phosphorylation state varies over the day
# protocol: NADH oxidation at […] nm, coupled to endogenous MDH in desalted leaf extract
# experimental.conditions: daytime leaves (mean of fluctuating values); 2.5 mM PEP, 10 mM NaHCO3, 5 mM MgCl2, pH 7.5, 25 °C; crude desalted extract
quantity.measured: Ki
Give the figure together with its unit, number first.

// query Which value of Ki has been reported for "O=C(O)C[C@H](O)C(=O)O" in the records?
// result 6 mM

Ref: paper PMC6868039
